System: KM20L2 colon
experimental protocol: NCI tumour cell line growth inhibition, 48 h

# smiles representation, readout qualifier, TGI, µM
data = [
    ("COc1ccc2cccc(C(=O)c3ccc(C)c4c3CCC4)c2c1", ">", 100),
    ("Cc1csc2c1C(=O)c1ccsc1C2=O", "=", 17.6),
    ("Cc1ccc(C(=O)N(C(C)C)C(C)C)cc1N=NN(C)C", ">", 100),
    ("CCOC(=O)C(C)(C)Oc1ccc2c(=O)cc(-c3ccccc3)oc2c1", "=", 52.1),
    ("Cc1cc(NS(=O)(=O)c2ccc(Nc3c4ccccc4nc4c(C(=O)Nc5ccc(S(=O)(=O)N=C(N)N)cc5)cccc34)cc2)no1", ">", 100),
    ("COc1cccc(NC(=O)CSc2nnc(-c3ccc(N=Cc4ccc(Cl)cc4)cc3)o2)c1", "=", 30.6),
]
